tested on: AXL; details: concentration: 1 μM,replicates: in singlicate; n = 1
endpoint: %Inh (%)
Please respond with the number in % and leave the unit unwritten.

# example entries with known answers
chemical_structure: Cc1occc1-c1nc(N)c(OC[C@@H](N)Cc2c[nH]c3ccccc23)cc1-c1cc2c(C)n[nH]c2cn1
measurement_target: AXL
%Inh / %: 0
//
chemical_structure: CC(C)Nc1cc(-c2ccc3c(N)n[nH]c3c2)nc(N)n1
measurement_target: AXL
%Inh / %: 0
//
chemical_structure: Cc1ccc2c(-c3ccncc3)c(-c3ccc(F)cc3)nn2c1.Cl
measurement_target: AXL
%Inh / %: 0
//
chemical_structure: CCN(CC)CCCCNc1ncc2cc(-c3c(Cl)cccc3Cl)c(NC(=O)NC(C)(C)C)nc2n1
measurement_target: AXL
%Inh / %: 68
//
chemical_structure: COc1ccc(C[C@@H](CN)NC(=O)c2cc(Br)c(-c3ccnc4[nH]ccc34)s2)cc1.Cl.Cl
measurement_target: AXL
%Inh / %: 95.2
//
chemical_structure: Cc1cc2cn[nH]c2cc1-c1cccc2c(N)c(C(N)=O)nnc12
measurement_target: AXL
%Inh / %: 15
//
chemical_structure: CC(C)N1C(=O)Cc2cc(Nc3ncc(C(F)(F)F)c(NCc4cccc(S(C)(=O)=O)c4)n3)ccc21
measurement_target: AXL;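 note: KINOMEscan kinase panel screen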
%Inh / %: 30

Would you kindly look at the next entry?
Form field: reported %Inh of Cl.Oc1cc(-c2nc(-c3ccccc3)[nH]c2-c2ccncc2)ccc1Cl
42
